experiment: CO2 binding constant (KCO2) calculated from the shift of the second reduction peak in CV; settings: DMF, 298 K
The entries below are paired with their reported K[CO2].
Please state the value followed by its unit.

Use these answered entries as a reference point.
compound | result
O=C1Nc2ccccc2/C1=C1\C(=O)Nc2cc(C(=O)O)ccc21 | 750 M⁻¹
COC(=O)C(CO)NC(=O)c1ccc2c(c1)NC(=O)/C2=C1/C(=O)Nc2ccccc21 (stereo not drawn) [6AIIdSer, Methyl isoindigo-6-carbonylserinate] | 2.57e+08 M⁻¹
CCCN1C(=O)/C(=C2/C(=O)N(CCC)c3cc(Br)ccc32)c2ccc(Br)cc21 | 74800 M⁻¹

Lab note: COC(=O)c1ccc2c(c1)NC(=O)/C2=C1/C(=O)Nc2ccc([N+](=O)[O-])cc21 [5N6MCIId, Methyl-5-nitroisoindigo-6-carboxylate] gave K[CO2] of 41500 M⁻¹

Lab note: "O=C1Nc2ccccc2/C1=C1\C(=O)Nc2cc(Br)ccc21" gave K[CO2] of 6.25e+09 M⁻¹

Lab note: COC(=O)c1ccc2c(c1)NC(=O)/C2=C1/C(=O)Nc2cc(C(=O)OC)ccc21 [66DMCIId, Dimethyl isoindigo-6,6′-dicarboxylate] gave K[CO2] of 1.17e+08 M⁻¹

---

test: UV-vis absorption, optical band gap; format: physicochemical; settings: UV-vis absorption (Kubelka-Munk spectra)
The entries below are paired with their reported Optical band gap.
Report the figure in eV without appending any unit label.

compound | Optical band gap, eV
O=C1Nc2cc(Br)ccc2/C1=C1\C(=O)Nc2cc(Br)ccc21 | 2.06
O=C1Nc2ccccc2/C1=C1\C(=O)Nc2cc(Br)ccc21 | 2.05
COc1ccc2c(c1)/C(=C1\C(=O)Nc3ccc(OC)cc31)C(=O)N2 | 1.78
COC(=O)C(CO)NC(=O)c1ccc2c(c1)NC(=O)/C2=C1/C(=O)Nc2ccccc21 (centres unmarked) [6AIIdSer, Methyl isoindigo-6-carbonylserinate] | 2.04
O=C1Nc2ccccc2/C1=C1\C(=O)Nc2ccc([N+](=O)[O-])cc21 | 2.07
O=C1Nc2ccc(F)cc2/C1=C1\C(=O)Nc2ccc(F)cc21 | 1.97

Then there is this compound:
Lab note: COC(=O)c1ccc2c(c1)NC(=O)/C2=C1/C(=O)Nc2ccccc21 [6MCIId, Methyl isoindigo-6-carboxylate] gave Optical band gap of 2.03

---

assay: Solubility in DMF; format: physicochemical
endpoint: Solubility in DMF (mM)
Report the figure in mM without appending any unit label.

Use these answered entries as a reference point.
compound | Solubility in DMF, mM
COC(=O)C(CO)NC(=O)c1ccc2c(c1)NC(=O)/C2=C1/C(=O)Nc2ccccc21 (stereo not shown) [6AIIdSer, Methyl isoindigo-6-carbonylserinate] | 830
COC(=O)C(CO)NC(=O)c1ccc2c(c1)NC(=O)/C2=C1/C(=O)Nc2cc(Br)ccc21 (stereo not shown) [6B6AIIdSer] | 568

Lab note: COC(=O)CNC(=O)c1ccc2c(c1)NC(=O)/C2=C1/C(=O)Nc2ccccc21 [6AIIdGly, Methyl isoindigo-6-carbonylglycinate] gave Solubility in DMF of 606

---

experiment: Solubility in DMF; format: physicochemical; details: organic solvent or mixture
The entries below are paired with their reported solubility.
Report the figure in mM without appending any unit label.

compound | unit abbrev | quantitative readout
O=C1Nc2ccc(Br)cc2/C1=C1\C(=O)Nc2ccc(Br)cc21 [55DBIId, 5,5′-Dibromoisoindigo] | mM | 6.3

Then there is this compound:
Lab note: COC(=O)c1ccc2c(c1)NC(=O)/C2=C1/C(=O)Nc2ccccc21 [6MCIId, Methyl isoindigo-6-carboxylate] gave solubility of 515

---

assay: CO2 binding constant (KCO2) calculated from the shift of the second reduction peak in CV; details: difference between the second reduction peak potentials (IId·−/IId2−) in CO2 and N2
The entries below are paired with their reported ΔEpeak(2).
Report the figure in V without appending any unit label.

Lab note: O=C1Nc2cc(F)c(F)cc2/C1=C1\C(=O)Nc2cc(F)c(F)cc21 [5566TFIId, 5,5′,6,6′-Tetrafluoroisoindigo] gave ΔEpeak(2) of 0.570

Lab note: COC(=O)C(CO)NC(=O)c1ccc2c(c1)NC(=O)/C2=C1/C(=O)Nc2ccccc21 (stereo not drawn) [6AIIdSer, Methyl isoindigo-6-carbonylserinate] gave ΔEpeak(2) of 0.46

Lab note: O=C1Nc2ccccc2/C1=C1\C(=O)Nc2ccc(Br)cc21 [5BIId, 5-Bromoisoindigo] gave ΔEpeak(2) of 0.494

Lab note: COC(=O)c1ccc2c(c1)NC(=O)/C2=C1/C(=O)Nc2ccc([N+](=O)[O-])cc21 [5N6MCIId, Methyl-5-nitroisoindigo-6-carboxylate] gave ΔEpeak(2) of 0.232

Lab note: COc1ccc2c(c1)/C(=C1\C(=O)Nc3ccc([N+](=O)[O-])cc31)C(=O)N2 [5M5NIId, 5-Methoxyl-5′-nitroisoindigo] gave ΔEpeak(2) of 0.470

Lab note: COC(=O)c1ccc2c(c1)NC(=O)/C2=C1/C(=O)Nc2ccccc21 [6MCIId, Methyl isoindigo-6-carboxylate] gave ΔEpeak(2) of 0.484

---

The entries below are paired with their reported E1/2 in CO2 (first or single).
assay: Cyclic voltammetry of isoindigos in DMF (half-wave redox potentials under N2 or CO2); format: physicochemical; conditions: vs. Fc^+/Fc; 2.5 mM in DMF, 0.1 M NBu4PF6, CO2, 298 K
Report the figure in V without appending any unit label.

Use these answered entries as a reference point.
molecule | endpoint | unit abbrev | quantitative readout
COC(=O)C(CO)NC(=O)c1ccc2c(c1)NC(=O)/C2=C1/C(=O)Nc2ccccc21 (stereo not shown) [6AIIdSer, Methyl isoindigo-6-carbonylserinate] | E1/2 in CO2 (first or single) | V | −1.08
COc1ccc2c(c1)/C(=C1\C(=O)Nc3ccc([N+](=O)[O-])cc31)C(=O)N2 | E1/2 in CO2 (first or single) | V | −1.08
O=C1Nc2ccccc2/C1=C1\C(=O)Nc2ccc([N+](=O)[O-])cc21 | E1/2 in CO2 (first or single) | V | −1.08
COc1ccc2c(c1)/C(=C1\C(=O)Nc3ccc(OC)cc31)C(=O)N2 | E1/2 in CO2 (first or single) | V | −1.2

Lab note: "O=C1Nc2ccccc2/C1=C1\C(=O)Nc2ccccc21" gave E1/2 in CO2 (first or single) of −1.21

---

experiment: Cyclic voltammetry of isoindigos in DMF (half-wave redox potentials under N2 or CO2); format: physicochemical; settings: second half-wave potential vs. Fc^+/Fc; 2.5 mM in DMF, 0.1 M NBu4PF6, N2, 298 K
endpoint: E1/2 in N2 (second) (V)
Report the figure in V without appending any unit label.

molecule | E1/2 in N2 (second), V
O=C1Nc2cc(Br)ccc2/C1=C1\C(=O)Nc2cc(Br)ccc21 [66DBIId, 6,6′-Dibromoisoindigo] | −1.67

Lab note: COc1ccc2c(c1)/C(=C1\C(=O)Nc3ccc([N+](=O)[O-])cc31)C(=O)N2 [5M5NIId, 5-Methoxyl-5′-nitroisoindigo] gave E1/2 in N2 (second) of −1.55

Lab note: CCCN1C(=O)/C(=C2/C(=O)N(CCC)c3cc(Br)ccc32)c2ccc(Br)cc21 [NNDPr66DBIId, N,N′-Dipropyl-6,6′-dibromoisoindigo] gave E1/2 in N2 (second) of −1.61

Lab note: COc1ccc2c(c1)/C(=C1\C(=O)Nc3ccc(OC)cc31)C(=O)N2 [55DMIId, 5,5′-Dimethoxylisoindigo] gave E1/2 in N2 (second) of −1.76

Lab note: COC(=O)C(CO)NC(=O)c1ccc2c(c1)NC(=O)/C2=C1/C(=O)Nc2ccccc21 (stereo not shown) [6AIIdSer, Methyl isoindigo-6-carbonylserinate] gave E1/2 in N2 (second) of −1.60

---

The entries below are paired with their reported ΔEpeak(2).
test: CO2 binding constant (KCO2) calculated from the shift of the second reduction peak in CV; settings: difference between the second reduction peak potentials (IId·−/IId2−) in CO2 and N2
Please state the value followed by its unit.

Use these answered entries as a reference point.
compound | result
COC(=O)c1ccc2c(c1)NC(=O)/C2=C1/C(=O)Nc2cc(Br)ccc21 [6B6MCIId, Methyl 6-bromoisoindigo-6′-carboxylate] | 0.486 V
O=C1Nc2ccccc2/C1=C1\C(=O)Nc2ccccc21 | 0.511 V
COc1ccc2c(c1)/C(=C1\C(=O)Nc3ccc(OC)cc31)C(=O)N2 | 0.494 V
COC(=O)C(CO)NC(=O)c1ccc2c(c1)NC(=O)/C2=C1/C(=O)Nc2cc(Br)ccc21 (stereo not shown) | 0.475 V
O=C1Nc2cc(Br)ccc2/C1=C1\C(=O)Nc2cc(Br)ccc21 | 0.525 V

Lab note: COC(=O)CNC(=O)c1ccc2c(c1)NC(=O)/C2=C1/C(=O)Nc2ccccc21 [6AIIdGly, Methyl isoindigo-6-carbonylglycinate] gave ΔEpeak(2) of 0.469 V

Lab note: "O=C1Nc2ccc(F)cc2/C1=C1\C(=O)Nc2ccc(F)cc21" gave ΔEpeak(2) of 0.547 V

Lab note: COC(=O)c1ccc2c(c1)NC(=O)/C2=C1/C(=O)Nc2cc(C(=O)OC)ccc21 [66DMCIId, Dimethyl isoindigo-6,6′-dicarboxylate] gave ΔEpeak(2) of 0.435 V

Lab note: "O=C1Nc2ccccc2/C1=C1\C(=O)Nc2cc(Br)ccc21" gave ΔEpeak(2) of 0.538 V

Lab note: "O=C1Nc2ccccc2/C1=C1\C(=O)Nc2ccc([N+](=O)[O-])cc21" gave ΔEpeak(2) of 0.484 V

Lab note: "O=C1Nc2ccccc2/C1=C1\C(=O)Nc2cc(C(=O)O)ccc21" gave ΔEpeak(2) of 0.129 V

Lab note: "O=C1Nc2ccc(Br)cc2/C1=C1\C(=O)Nc2ccc(Br)cc21" gave ΔEpeak(2) of 0.510 V

Lab note: "CCCN1C(=O)/C(=C2/C(=O)N(CCC)c3cc(Br)ccc32)c2ccc(Br)cc21" gave ΔEpeak(2) of 0.247 V
